The reported numbers originate from the supplement of paper PMC10567573.

B1: TRIB1 (parent)
chain: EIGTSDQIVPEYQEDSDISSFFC

variants of: B1; test: protein stability index of a GFP-peptide fusion (GPS, HEK-293T) (PSI 1-6); higher = more stable; conditions: c terminus: native;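 also: lentivirally expressed fusions sorted by FACS into six bins by GFP to DsRed ratio, PSI derived from sequencing read proportions per bin multiplied by bin number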
Categories are defined by ranges of protein stability index, namely LOW (below 3), MEDIUM (3 to below 4), HIGH (4 or more)

Below are worked cases with known answers.
E14W
LOW
Q7Y
HIGH

Read the next record carefully.
Query: // return the class label for F21H
Response: HIGH
